Some compounds, each annotated with its measured pKi.
molecular target: h-GABA-A α5β3γ2 (Homo sapiens (Human), UniProt P18507+P31644); assay: [3H]flumazenil competition binding assay, membranes of HEK293 cells expressing human GABAA receptors; conditions: displacement of [3H]flumazenil 0.5 nM, HEK293 cells expressing human receptors, mean of two determinations; read-out: Ki h-GABA-A α5β3γ2
Note: pKi values are expressed as the negative base-10 logarithm of concentration in M.

Known results for compounds:
| compound | pKi |
| --- | --- |
| Cc1ccc(-c2noc(C)c2COc2cnc(C(=O)NCC3CC3)cn2)cn1 [Example 95] | 7.87 |
| Cc1ccc(-c2noc(C)c2COc2ccc(C(=O)NC3(C(F)(F)F)CC3)nn2)cn1 [Example 59] | 7.98 |
| Cc1ccc(-c2noc(C)c2COc2ccc(C(=O)N[C@H]3CCCC[C@@H]3O)nn2)cn1 [Example 24] | 7.38 |

Now consider a different compound.
Name the recorded pKi for Cc1ccc(-c2noc(C)c2COc2ccc(C(=O)NCC(F)(F)F)nn2)cn1 [Example 40] . 7.97

###

target: h-GABA-A α5β3γ2 (Homo sapiens (Human), UniProt P18507+P31644); assay: Two-electrode voltage clamp electrophysiology in Xenopus oocytes expressing GABAA receptors, modulation of GABA EC20 current; assay type: cell-based; conditions: % modulation of GABA EC20 = 100*(Fold increase−1), Xenopus oocytes
Threshold 70%: Efficacy (GABA) % strictly smaller gives satisfied, otherwise not satisfied.

| molecule | class |
| --- | --- |
| Cc1ccc(-c2noc(C)c2COc2ccc(C(=O)N[C@H]3CCOC[C@@H]3O)cn2)cn1 [Example 127] | satisfied |

State whether 70% exceeds Efficacy (GABA) % recorded for Cc1ccc(-c2noc(C)c2COc2ccc(C(=O)NCCO)nn2)cn1 [Example 29] . not satisfied

Lab note: confirm whether the reported Efficacy (GABA) % for this molecule is below 70%, equality not counting. molecule: Cc1ccc(-c2noc(C)c2COc2ccc(C(=O)NC3(C)CC3)nn2)cn1 [Example 76] not satisfied

Problem: For the molecule Cc1ccc(-c2noc(C)c2COc2ccc(C(=O)N[C@@H]3CCOC[C@H]3O)nn2)cn1 [Example 28] , is Efficacy (GABA) % under 70%? satisfied

Answer whether the molecule Cc1ccc(-c2noc(C)c2COc2ccc(C(=O)N[C@@H]3CC[C@@H](OCC(F)F)C3)nn2)cn1 [Example 191] has Efficacy (GABA) % strictly less than 70% satisfied

###

molecular target: h-GABA-A α5β3γ2 (Homo sapiens (Human), UniProt P18507+P31644); assay: Two-electrode voltage clamp electrophysiology in Xenopus oocytes expressing GABAA receptors, modulation of GABA EC20 current; format: cell-based; settings: % modulation of GABA EC20 = 100*(Fold increase−1), Xenopus oocytes
Note to self: values exactly at 80% are Fulfilled. So Efficacy (GABA) % at or above 80% is Fulfilled, below is Not fulfilled.

Solved cases below.
| compound | class |
| --- | --- |
| Cc1ccc(-c2noc(C)c2COc2cc(C)c(C(=O)NC3CCOCC3)nn2)cn1 | Not fulfilled |
| Cc1ncc(-c2noc(C)c2COc2ccc(C(=O)NC(C)C)cn2)cc1F | Not fulfilled |
| COc1ccc(-c2noc(C)c2COc2ccc(C(=O)N3CCS(=O)(=O)CC3)cn2)cn1 | Not fulfilled |
| CC1(NC(=O)c2ccc(OCc3c(-c4ccc(Cl)nc4)noc3C3CC3)nn2)COC1 | Fulfilled |
| Cc1onc(-c2ccc(C(F)(F)F)nc2)c1COc1ccc(C(=O)NC2CCOCC2)nn1 | Fulfilled |

Could you verify whether the entry Cc1ccc(-c2noc(C)c2COc2ccc(C(=O)NC3(C)CCOC3)nn2)cn1 (racemic) shows Efficacy (GABA) % of no less than 80%? Fulfilled

Has "Cc1onc(-c2ccc(Cl)nc2)c1COc1ccc(C(=O)NC2CC3(COC3)C2)nn1" a recorded Efficacy (GABA) % greater than or equal to 80%? Not fulfilled

hey, is Efficacy (GABA) % for this one >= 80%? "Cc1ccc(-c2noc(C)c2COc2ccc(C(=O)NC3(C)CCOCC3)cn2)cn1" Not fulfilled

Check the entry "Cc1ccc(-c2noc(C)c2COc2ccc(C(=O)NC3(C)COC3)nn2)cn1" : does Efficacy (GABA) % equal or exceed 80%? Fulfilled

I'd appreciate it if you could say whether "Cc1ccc(-c2noc(C3CC3)c2COc2ccc(C(=O)NC3(C)COC3)nn2)cn1" has Efficacy (GABA) % at least equal to 80%. Fulfilled

Entry "Cc1ccc(-c2noc(C)c2COc2nnc(C(N)=O)cc2C)cn1" : is its Efficacy (GABA) % no less than 80%? Not fulfilled

Answer whether Efficacy (GABA) % of "Cc1ccc(-c2noc(C)c2COc2ccc(C(=O)NCCC#N)nn2)cn1" is greater than or equal to 80%. Not fulfilled

Determine whether this compound has Efficacy (GABA) % no lower than 80%: "Cc1ccc(-c2noc(C)c2COc2ccc(C(=O)NC3(C(F)(F)F)CC3)nn2)cn1" Fulfilled

Determine whether measured Efficacy (GABA) % meets or exceeds 80% for Cc1ccc(-c2noc(C)c2COc2ccc(C(=O)NC(C)C(F)(F)F)nn2)cn1 (racemic) Fulfilled

Does Cc1ccc(-c2noc(C)c2COc2ccc(C(=O)NC3CCOC3)nn2)cn1 (racemic) have a reported Efficacy (GABA) % of at least 80%? Fulfilled

###

molecular target: h-GABA-A α5β3γ2 (Homo sapiens (Human), UniProt P18507+P31644); test: [3H]flumazenil competition binding assay, membranes of HEK293 cells expressing human GABAA receptors; details: displacement of [3H]flumazenil 0.5 nM, HEK293 cells expressing human receptors, mean of two determinations; read-out: Ki h-GABA-A α5β3γ2
metric: Ki (nM)
State just the number; it will be interpreted in nM.

Enter reported Ki observed with h-GABA-A α5β3γ2 (Homo sapiens (Human), UniProt P18507+P31644) for Cc1ccc(-c2noc(C)c2COc2ccc(C(=O)N[C@H]3C[C@H]4CC[C@H]3O4)nn2)cn1 (single isomer, unassigned) 20.7

Item: "COc1ccc(-c2noc(C)c2COc2ccc(C(=O)N3CCS(=O)(=O)CC3)cn2)cn1" Test system: h-GABA-A α5β3γ2 (Homo sapiens (Human), UniProt P18507+P31644) Read-out: Ki Value: ? 56

Which Ki is reported with h-GABA-A α5β3γ2 (Homo sapiens (Human), UniProt P18507+P31644) for this entry: Cc1ccc(-c2noc(C)c2COc2cnc(C(=O)NC3CCOC3)cn2)cn1 (stereo in doubt) ? 13.2

###

molecular target: h-GABA-A α5β3γ2 (Homo sapiens (Human), UniProt P18507+P31644); test: Two-electrode voltage clamp electrophysiology in Xenopus oocytes expressing GABAA receptors, modulation of GABA EC20 current; assay type: cell-based; details: % modulation of GABA EC20 = 100*(Fold increase−1), Xenopus oocytes
metric: Efficacy (GABA) % (%)
Just the number please, in %, no unit attached.

| compound structure string | study system | Efficacy (GABA) % [%] |
| --- | --- | --- |
| Cc1ccc(-c2noc(C)c2COc2ccc(C(=O)NC3COC3)nn2)cn1 | h-GABA-A α5β3γ2 (Homo sapiens (Human), UniProt P18507+P31644) | 82 |
| Cc1ccc(-c2noc(C)c2COc2ccc(C(=O)NC3(C#N)CC3)nn2)cn1 | h-GABA-A α5β3γ2 (Homo sapiens (Human), UniProt P18507+P31644) | 86 |
| CCc1onc(-c2ccc(C)nc2)c1COc1ccc(C(=O)NC2CCS(=O)(=O)CC2)cn1 | h-GABA-A α5β3γ2 (Homo sapiens (Human), UniProt P18507+P31644) | 160 |
| CNC(=O)c1ccc(OCc2c(-c3ccc(C)nc3)noc2C)nc1F | h-GABA-A α5β3γ2 (Homo sapiens (Human), UniProt P18507+P31644) | 54 |
| Cc1ccc(-c2noc(C)c2COc2ccc(C(=O)NCC(C)C)cn2)cn1 | h-GABA-A α5β3γ2 (Homo sapiens (Human), UniProt P18507+P31644) | 55 |

Given "Cc1ccc(-c2noc(C)c2COc2ccc(C(=O)NC3CC(F)(F)C3)nn2)cn1" , state its recorded Efficacy (GABA) %. 81

Entry "Cc1ccc(-c2noc(C)c2COc2ccc(C(=O)NC(C)(C)CO)nn2)cn1" has what Efficacy (GABA) %? 79

Recorded Efficacy (GABA) % of "Cc1ccc(-c2noc(C)c2COc2cc3c(cn2)C(=O)N(C2CC4(COC4)C2)C3)cn1" , please. 99

###

target: h-GABA-A α5β3γ2 (Homo sapiens (Human), UniProt P18507+P31644); assay: Two-electrode voltage clamp electrophysiology in Xenopus oocytes expressing GABAA receptors, modulation of GABA EC20 current; type: cell-based; conditions: % modulation of GABA EC20 = 100*(Fold increase−1), Xenopus oocytes
Listed molecules paired with reported Efficacy (GABA) %
Note: unit % is implicit; provide only the numeric part.

Solved cases below.
| molecule | metric | numeric result |
| --- | --- | --- |
| Cc1ccc(-c2noc(C)c2COc2ccc(C(=O)NC3CCC(F)(F)CC3)nn2)cn1 [Example 43] | Efficacy (GABA) % | 82 |
| Cc1ccc(-c2noc(CF)c2COc2ccc(C(=O)NC3CCOCC3)nn2)cn1 [Example 168] | Efficacy (GABA) % | 102 |
| CCC[C@@H](CO)NC(=O)c1ccc(OCc2c(-c3ccc(OC)nc3)noc2C)nc1 [Example 139] | Efficacy (GABA) % | 152 |

Now for another entry.
Fill in the blank: the reported Efficacy (GABA) % of Cc1ccc(-c2noc(C)c2COc2cnc(C(=O)N[C@@H]3CCOC3)cn2)cn1 [Example 89] is ____. 31
